Outcome measure: melting point

[[record]]
compound = "CC(=O)Nc1n[nH]c(C(C)(C)C)c1Br"
assay_value = "234 to 235 °C"

[[record]]
compound = "CS(=O)(=O)N1CCC(NC(=O)Nc2ccc(F)cc2)CC1"
assay_value = "186 to 188 °C"

[[record]]
compound = "Cc1ccc(S(=O)(=O)OCCOc2ccc(OC(F)(F)F)cc2)cc1"
assay_value = "35 to 36 °C"

[[record]]
compound = "CCCCCCNC(=O)Oc1ccc2c(c1)CCCN2"
assay_value = "100 °C"

[[record]]
compound = "COc1ccccc1-c1cnc(-c2ccccc2)[nH]c1=O"
assay_value = "245 to 247 °C"

[[record]]
compound = "CC(C)(OCc1coc(-c2ccc(Cl)cc2)n1)C(=O)O"
assay_value = "144 to 145 °C"

[[record]]
compound = "Oc1ccc(N2CCN(c3ccncc3)CC2)cc1"
assay_value = "288 to 290 °C"

[[record]]
compound = "COc1c(C2CCN(CCCCNC(=O)c3ccc(-c4ccc(C#N)s4)cc3)CC2)ccc2c1CCCC2"
assay_value = "182 to 184 °C"

[[record]]
compound = "C[C@H](NS(=O)(=O)c1ccc(-c2c(C#N)c3cc(F)c(OC(F)F)cc3n2C2CCC2)nc1)C(F)(F)F"
assay_value = "172 to 175 °C"

[[record]]
compound = "C/C(=C\\C(=O)NCc1cccnc1)c1ccc(OCC(=O)O)cc1"
assay_value = "228 to 229 °C"

[[record]]
compound = "COc1cc(N(C)C)c(Cl)cc1C(=O)NC1CCN(Cc2ccc(F)cc2)C1 (stereo unspecified)"
assay_value = "139 to 141 °C"

[[record]]
compound = "CCOC(=O)c1cc(F)c(N2CCC(NC(=O)OC(C)(C)C)C2)cc1F (stereo unspecified)"
assay_value = "98 to 100 °C"

[[record]]
compound = "Cc1c(O)c(C)c2nc(COc3ccc(CC4SC(=O)NC4=O)cc3)n(C)c2c1C (stereo unspecified)"
assay_value = "240 to 244 °C"

[[record]]
compound = "O=C1NOCCN1c1ccc(Cl)c(Cl)c1"
assay_value = "152 °C"

[[record]]
compound = "CC(C)(C)OC(=O)N1CCc2c(C=O)c3ccccc3n2CC1"
assay_value = "167 to 168 °C"

[[record]]
compound = "NN(c1ccccc1)c1cc(Cl)nc(Cl)n1"
assay_value = "114 to 116 °C"

[[record]]
compound = "N#Cc1c(N2CCN(C(=O)c3cccs3)CC2)c2cc(Cl)cnc2n(CC(=O)c2ccccc2)c1=O"
assay_value = "316 °C"

[[record]]
compound = "Cc1nc2cccc(OCC(C)(C)NC(=O)C3CCOCC3)c2c(N)c1C(=O)O"
assay_value = "170 to 173 °C"

[[record]]
compound = "Cn1nc(C#Cc2ccccc2)ccc1=O"
assay_value = "118 to 120 °C"

[[record]]
compound = "Cc1cc(-n2cncn2)c2cccc(OCc3c(Cl)ccc(S(=O)(=O)N4CCC[C@H]4C(=O)NCCCN4CCCC4)c3Cl)c2n1"
assay_value = "86 °C"

[[record]]
compound = "CC(C)(C)OC(=O)C(C)(C)N1COC(CF)=C(c2ccccc2)C1=O"
assay_value = "80.5 to 82.5 °C"


====

# melting point listing for each entry below
Outcome measure: melting point

[[record]]
compound = "CC[C@H](C(=O)O)[C@H](N)C(=O)O"
assay_value = "239 to 241 °C"

[[record]]
compound = "CNC(=C[N+](=O)[O-])NCCOc1cccc(CCCN(C)C)c1"
assay_value = "82 to 83.5 °C"

[[record]]
compound = "NC(=O)c1sc2nccc(N3CCCC(O)C3)c2c1N (stereo not given)"
assay_value = "208 to 211 °C"

[[record]]
compound = "O=C(c1cccc(Cl)c1)c1ccccc1Nc1ncccc1[N+](=O)[O-]"
assay_value = "124 to 125 °C"

[[record]]
compound = "CN(C)CCCCCCOc1ccc(C(=O)CCc2ccccc2)cc1"
assay_value = "27 to 28 °C"

[[record]]
compound = "O=C(NC(Cc1ccccc1)C(=O)O)c1ccc2cc(OCc3ccccc3)ccc2c1 (stereo not given)"
assay_value = "207 °C"

[[record]]
compound = "Cc1ccc(-c2nnc3cc(-c4ccccc4)c(OCc4ncn(C)n4)nn23)cc1"
assay_value = "219 to 220 °C"

[[record]]
compound = "CCCC(=O)OC(C)OC(=O)Nc1ccc(Cl)cc1 (stereo not given)"
assay_value = "52 to 54 °C"

[[record]]
compound = "CS(=O)(=O)c1ccc(C2=C(c3ccc(C#N)cc3)CCC2)cc1"
assay_value = "163 to 164 °C"

[[record]]
compound = "O=C(NCc1ccccn1)Nc1cc(N2CC(Cc3ccccc3)CC2=O)ccn1 (stereo not given)"
assay_value = "215 to 220 °C"

